This collection of values is drawn from patent US20250011363A1.

# Subject Of Test: acetylcholine receptor
# Assay Text: SPR, peptide at 10 uM on acetylcholine receptor
Readout Label: Binding affinity (RU)
# do not omit the unit; it follows the number

Binder	Result
RKCIR [5mer-655]	15 RU
KATGR [5mer-656]	13 RU
KDADR [5mer-950]	22 RU

Next up:
Challenge: # return recorded Binding affinity (RU) for entry KTMHK [5mer-952]
Response given: 12 RU
